# Protocol Notes: probe aCHRDL2 binding to arrayed compounds – biochemical, biotinylated probe, 635/667 nm fluorescence, primary screen (AID 1100)
# Assay Conditions: small-molecule microarray, higher = more signal
Rule: composite z-score of 0.2 or more gives Met; anything lower gives Not met.

Does the compound O=C1OCCC/C=C\[C@H]2OC34C=CCN(Cn5nnc6ccccc65)C(=O)[C@H]3N(CCCO)C(=O)[C@@H]4C12 (stereo not given in full) have recorded composite z-score that is 0.2 or more?
Met

Tell me whether composite z-score is at least 0.2 here: `O=C1O[C@@H](c2ccccc2)[C@@H](c2ccccc2)N2[C@@H](c3ccc(O)cc3)[C@]3(C(=O)Nc4ccccc43)[C@@H](C(=O)N3CCCCCCC3)[C@H]12`
Met

Say whether `C=CCOC(=O)[C@@H]1[C@H]2C(=O)O[C@H](c3ccccc3)[C@H](c3ccccc3)N2[C@H](c2ccc(OCCOC(=O)[C@H]3C[C@H]4C(=O)N[C@@H](CCCC[N+](C)(C)C)C(=O)N4[C@H]3c3cccc(OCCO)c3)cc2)[C@@]12C(=O)Nc1ccc(I)cc12` shows composite z-score of 0.2 or more.
Not met

Say whether `COc1ccc([Si](C)(C)[C@@H]2[C@@H](CCO)O[C@]3(C(=O)N(Cc4cccc(N5CCCCC5=O)c4)c4ccccc43)[C@H]2C)cc1` shows composite z-score of 0.2 or more.
Not met

# bool: composite z-score of `C=CC[C@@]1(C(N)=O)N=C(c2ccc(OCCCO)cc2)O[C@@H]1c1ccccc1N=[N+]=[N-]` >= 0.2
Met

Say whether `C=C(C(=O)CC[C@@H](OC(=O)c1cccnc1)c1ccc(CO)o1)C(C)C` shows composite z-score of 0.2 or more.
Not met

composite z-score >= 0.2 for `C[n+]1ccc2ccc(O)cc2c1` ?
Not met

API: above_or_equal(metric=composite z-score, cutoff=0.2) for item `CCCCC(=C=CC[C@H](O)c1ccccc1OCCO)C[C@H](O)c1cc(Cl)cc(Cl)c1O`
Not met

For this compound, is measured composite z-score 0.2 or higher? `COc1ccc([Si](C)(C)[C@H]2[C@H](CC(=O)N(CCO)Cc3ccccc3)O[C@@]3(C(=O)N(Cc4cccc(N5C(=O)c6cccc7cccc5c67)c4)c4ccccc43)[C@@H]2C)cc1`
Not met

Has `COc1ccc([Si](C)(C)[C@H]2[C@H](CC(=O)N3Cc4ccccc4C[C@H]3CO)O[C@@]3(C(=O)N(Cc4cccc(I)c4)c4ccccc43)[C@@H]2C)cc1` a recorded composite z-score greater than or equal to 0.2?
Not met

API: above_or_equal(metric=composite z-score, cutoff=0.2) for item `CCOC(=O)C=Cc1cccc(OC)c1O`
Not met

Quick check: does `C=C(CCCC)C(=O)CC[C@H](OC(C)=O)c1ccc(CO)o1` have composite z-score greater than or equal to 0.2?
Not met

Form field: composite z-score at least 0.2? Entry: `COCCOC(=O)N1C(=O)[C@@]2(c3ccccc31)[C@H](c1ccc(O)cc1)N1[C@H](c3ccccc3)[C@H](c3ccccc3)OC(=O)[C@H]1[C@@H]2C(N)=O`
Met

State whether the measured composite z-score reaches 0.2, counting equality as reaching it, for `O=S(=O)(NCCCO)c1ccc(Br)cc1`
Met

Decide: is the reported value of composite z-score for `NC(=O)[C@@]1(CCS(=O)(=O)c2ccccc2)N=C(c2ccc(OCCCO)cc2)O[C@H]1c1ccccc1` equal to or greater than 0.2?
Met
